src = patent EP0409227A2

test system: HBsAg-Sekretion von Hep G2 (2.2.15)-Zellen; test: Inhibition of HBsAg secretion of Hep G2 (2.2.15) cells (solid-phase radioimmunoassay of the medium); assay type: cell-based, HBV; conditions: nucleoside 0,03 µM; 4 days + 24 h; mean ± SD of five experiments
For each record, write down the corresponding HBsAg.

*Q* Which measured HBsAg value corresponds to Nc1nc(N)c2ncn([C@H]3C[C@H](F)[C@@H](CO)O3)c2n1 ?
*A* 2,0 ± 0,5 ng/ml

*Q* Find the recorded HBsAg belonging to Cc1cn([C@H]2C[C@H](Cl)[C@@H](CO)O2)c(=O)nc1N [2′,3′-Didesoxy-3′chlor-5-methylcytidin, 3′-Chlor-2′,3′-didesoxy-5-methylcytidin] and report it.
*A* 7,1 ± 0,8 ng/ml

*Q* Reported HBsAg for Cc1cn([C@H]2C[C@H](F)[C@@H](CO)O2)c(=O)nc1N [2′,3′-Didesoxy-3′-fluor-5-methylcytidin] : what is it?
*A* 2,4 ± 0,3 ng/ml

*Q* Item under review: Nc1ncnc2c1ncn2[C@H]1C=C[C@@H](CO)O1 [2′,3′-Didehydro-2′,3′-didesoxyadenosin] . Reported HBsAg?
*A* 4,7 ± 0,6 ng/ml

*Q* If you can, please state the reported HBsAg value of Cc1cn([C@@H]2O[C@H](CO)[C@@H](O)[C@@H]2O)c(=O)nc1N [Arabinosyl-5-methyl-cytosin, 1-β-D-Arabinofuranosyl-5-methylcytosin] .
*A* 10,3 ± 1,2 ng/ml

*Q* // lookup HBsAg for CCc1cn([C@H]2C[C@H](F)[C@@H](CO)O2)c(=O)nc1N [2',3'-Didesoxy-3'-fluor-5-ethylcytidin]
*A* 2,6 ± 0,6 ng/ml

*Q* Query (molecule): Cc1cn([C@H]2C[C@H](N)[C@@H](CO)O2)c(=O)nc1N [2′,3′-Didesoxy-3′-amino-5-methylcytidin] ; field requested: HBsAg
*A* 7,0 ± 1,1 ng/ml

*Q* Quick one: HBsAg for Nc1ccn([C@H]2C=C[C@@H](CO)O2)c(=O)n1 [2',3'-Didehydro-2',3'-didesoxycytidin] ?
*A* 5,8 ± 1,2 ng/ml

* * *

test system: HBsAg-Sekretion von Hep G2 (2.2.15)-Zellen; assay: Inhibition of HBsAg secretion of Hep G2 (2.2.15) cells (solid-phase radioimmunoassay of the medium); format: cell-based, HBV; details: nucleoside 0,01 µM; % of control without nucleoside (100)
Exam item: assign label 1 to entries whose HBsAg is below 50% and label 0 to entries at or above 50%. Note that a value of exactly 50% receives label 0.

*Q* HBsAg under 50%? Item: Nc1nc(N)c2ncn([C@H]3C[C@H](F)[C@@H](CO)O3)c2n1
*A* label 1

*Q* Does this compound meet the criterion HBsAg < 50%? CCc1cn([C@H]2C[C@H](F)[C@@H](CO)O2)c(=O)nc1N [2',3'-Didesoxy-3'-fluor-5-ethylcytidin]
*A* label 1

*Q* Given Cc1cn([C@H]2C[C@H](F)[C@@H](CO)O2)c(=O)nc1N [2′,3′-Didesoxy-3′-fluor-5-methylcytidin] , is recorded HBsAg strictly lower than 50%?
*A* label 1

*Q* Given the entry Cc1cn([C@H]2C[C@H](N)[C@@H](CO)O2)c(=O)nc1N [2′,3′-Didesoxy-3′-amino-5-methylcytidin] , would its reported HBsAg be below 50%?
*A* label 1

*Q* Is the reported HBsAg for Cc1cn([C@@H]2O[C@H](CO)[C@@H](O)[C@@H]2O)c(=O)nc1N [Arabinosyl-5-methyl-cytosin, 1-β-D-Arabinofuranosyl-5-methylcytosin] strictly below 50%?
*A* label 0

*Q* Confirm or reject: HBsAg of Nc1ncnc2c1ncn2[C@H]1C=C[C@@H](CO)O1 [2′,3′-Didehydro-2′,3′-didesoxyadenosin] lies strictly below 50%
*A* label 0

*Q* Hello, is HBsAg of the following compound strictly smaller than 50%? Nc1ccn([C@H]2C=C[C@@H](CO)O2)c(=O)n1 [2',3'-Didehydro-2',3'-didesoxycytidin]
*A* label 0
